Tested on: HT-29
assay.info: Cytotoxicity against human HT-29 cells at 100 ug/ml after 48 hrs by neutral red assay
Format: functional
Activity reference
Please format your answer as a value with the unit trailing.

Below are worked cases with known answers.
COC(=O)[C@@]1(C)CC[C@]2(C)CC[C@]3(C)C(=CC(=O)[C@@H]4[C@@]5(C)C[C@H](N=[N+]=[N-])[C@@H](N=[N+]=[N-])C(C)(C)[C@@H]5CC[C@]43C)[C@@H]2C1 ... 52%
COC(=O)[C@]12CC[C@@H](C)[C@H](C)[C@H]1C1=CC[C@@H]3[C@@]4(C)C[C@@H](N=[N+]=[N-])[C@H](N=[N+]=[N-])C(C)(C)[C@@H]4CC[C@@]3(C)[C@]1(C)CC2 ... 55%

Asked: Supply reported Activity belonging to this compound: COC(=O)[C@@]1(C)CC[C@]2(C)CC[C@]3(C)C(=CC(=O)[C@@H]4[C@@]5(C)C[C@H](N)[C@@H](N)C(C)(C)[C@@H]5CC[C@]43C)[C@@H]2C1
Given back: 58%

###

assay.info: Acute toxicity in Albino rat
Type: organism-based
condition.context: in vivo
measurement.name: LD50
Please format your answer as a value with the unit trailing.

CC1(C)[C@H](O)[C@@H](O)C[C@]2(C)[C@H]3C(=O)C=C4[C@@H]5C[C@@](C)(C(=O)O)CC[C@]5(C)CC[C@@]4(C)[C@]3(C)CC[C@@H]12 ... 656 mg/kg
COC(=O)[C@]12CC[C@@H](C)[C@H](C)[C@H]1C1=CC[C@@H]3[C@@]4(C)C[C@@H](N)[C@H](N)C(C)(C)[C@@H]4CC[C@@]3(C)[C@]1(C)CC2 ... 836 mg/kg
COC(=O)[C@]12CC[C@@H](C)[C@H](C)[C@H]1C1=CC[C@@H]3[C@@]4(C)C[C@@H](O)[C@H](O)C(C)(C)[C@@H]4CC[C@@]3(C)[C@]1(C)CC2 ... 818 mg/kg

Asked: Supply reported LD50 belonging to this molecule: COC(=O)[C@@]1(C)CC[C@]2(C)CC[C@]3(C)C(=CC(=O)[C@@H]4[C@@]5(C)C[C@H](N=[N+]=[N-])[C@@H](N=[N+]=[N-])C(C)(C)[C@@H]5CC[C@]43C)[C@@H]2C1
Given back: 898 mg/kg

Asked: Supply reported LD50 belonging to this molecule: COC(=O)[C@@]1(C)CC[C@]2(C)CC[C@]3(C)C(=CC(=O)[C@@H]4[C@@]5(C)C[C@H](O)[C@@H](O)C(C)(C)[C@@H]5CC[C@]43C)[C@@H]2C1
Given back: 793 mg/kg

###

LD50 reference
assay.info: Acute toxicity in Albino rat
Format: organism-based
condition.context: in vivo
Output spec: scalar in mg/kg, unitless text.

COC(=O)[C@@]1(C)CC[C@]2(C)CC[C@]3(C)C(=CC(=O)[C@@H]4[C@@]5(C)C[C@H](N)[C@@H](N)C(C)(C)[C@@H]5CC[C@]43C)[C@@H]2C1 ... 893
C[C@H]1[C@H](C)CC[C@]2(C(=O)O)CC[C@]3(C)C(=CC[C@@H]4[C@@]5(C)C[C@@H](O)[C@H](O)C(C)(C)[C@@H]5CC[C@]43C)[C@H]12 ... 816

Could you now look at the following molecule, please?
Asked: Supply reported LD50 belonging to this molecule: COC(=O)[C@]12CC[C@@H](C)[C@H](C)[C@H]1C1=CC[C@@H]3[C@@]4(C)C[C@@H](N=[N+]=[N-])[C@H](N=[N+]=[N-])C(C)(C)[C@@H]4CC[C@@]3(C)[C@]1(C)CC2
Given back: 825

Data origin: ChEMBL document CHEMBL1153883
